Could you please report measured EC50 for the items listed next?
# ASSAY TARGET: β2-adrenoreceptor (Cavia porcellus, UniProt Q8K4Z4)
# Construct: the trachea was gently excised and placed in ice-cold aerated Krebs Ringer solution
# Sequence (Q8K4Z4 whole entry): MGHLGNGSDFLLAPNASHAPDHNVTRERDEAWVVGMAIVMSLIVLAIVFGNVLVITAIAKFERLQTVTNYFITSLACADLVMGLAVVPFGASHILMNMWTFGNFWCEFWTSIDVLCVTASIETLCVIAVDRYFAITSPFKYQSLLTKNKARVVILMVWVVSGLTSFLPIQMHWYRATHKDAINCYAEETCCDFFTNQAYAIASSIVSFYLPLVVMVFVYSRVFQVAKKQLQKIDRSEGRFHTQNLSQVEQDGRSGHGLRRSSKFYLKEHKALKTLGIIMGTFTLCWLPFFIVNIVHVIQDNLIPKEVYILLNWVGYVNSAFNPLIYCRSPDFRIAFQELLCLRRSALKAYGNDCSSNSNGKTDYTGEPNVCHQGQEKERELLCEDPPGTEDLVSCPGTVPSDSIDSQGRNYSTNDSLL
# TEST: In vitro bioassay for β2-adrenergic activity (relaxation of precontracted tracheal rings)
# RUN PARAMETERS: guinea pig tracheal rings precontracted with carbachol, 37° C., pH=7.4, read-out: β2 (trachea)
Put down the number, then write its unit next to it.

Could you share what EC50 was measured for CSCCCC(C)NC[C@H](O)c1ccc(O)c(O)c1 (some centres unmarked) [Example 8] , tested on β2-adrenoreceptor (Cavia porcellus, UniProt Q8K4Z4)?
4.6 nM

Could you share what EC50 was measured for COCCCC(C)NC[C@H](O)c1ccc(O)c(O)c1 (some centres unmarked) [Example 5] , tested on β2-adrenoreceptor (Cavia porcellus, UniProt Q8K4Z4)?
8.2 nM

Could you share what EC50 was measured for CSCCCNC[C@H](O)c1ccc(O)c(O)c1 [Example 11] , tested on β2-adrenoreceptor (Cavia porcellus, UniProt Q8K4Z4)?
16 nM

Could you share what EC50 was measured for COCCCNC[C@H](O)c1ccc(O)c(O)c1 [Example 3] , tested on β2-adrenoreceptor (Cavia porcellus, UniProt Q8K4Z4)?
21 nM

Could you share what EC50 was measured for C[S+]([O-])CCCNC[C@H](O)c1ccc(O)c(O)c1 (some centres unmarked) [Example 6] , tested on β2-adrenoreceptor (Cavia porcellus, UniProt Q8K4Z4)?
140 nM

Could you share what EC50 was measured for COCCC(C)NC[C@H](O)c1ccc(O)c(O)c1 (some centres unmarked) [Example 4] , tested on β2-adrenoreceptor (Cavia porcellus, UniProt Q8K4Z4)?
9.9 nM

Could you share what EC50 was measured for CSCCCCNC[C@H](O)c1ccc(O)c(O)c1 [Example 9] , tested on β2-adrenoreceptor (Cavia porcellus, UniProt Q8K4Z4)?
20 nM

Could you share what EC50 was measured for CC(CCCC#N)NC[C@H](O)c1ccc(O)c(O)c1 (some centres unmarked) [Example 2] , tested on β2-adrenoreceptor (Cavia porcellus, UniProt Q8K4Z4)?
2.7 nM

Could you share what EC50 was measured for CCSCCCNC[C@H](O)c1ccc(O)c(O)c1 [Example 10] , tested on β2-adrenoreceptor (Cavia porcellus, UniProt Q8K4Z4)?
124 nM

Could you share what EC50 was measured for C[S+]([O-])CCCCNC[C@H](O)c1ccc(O)c(O)c1 (some centres unmarked) [Example 7] , tested on β2-adrenoreceptor (Cavia porcellus, UniProt Q8K4Z4)?
245 nM

Could you share what EC50 was measured for N#CCCCNC[C@H](O)c1ccc(O)c(O)c1 [Example 1] , tested on β2-adrenoreceptor (Cavia porcellus, UniProt Q8K4Z4)?
4.7 nM

---

# ASSAY TARGET: α-adrenoreceptor
# TEST: In vitro bioassay for α-adrenergic activity (contraction of aortic rings)
# RUN PARAMETERS: rabbit aortic rings, propranolol pretreated, 37° C., pH=7.4, read-out: α (aorta)
Counter-ions that a name gives are not always drawn.
ASSAY READOUT: pEC50
A value of pEC50 is the negative decimal logarithm of a concentration given in moles per litre.

Could you share what pEC50 was measured for COCCCNC[C@H](O)c1ccc(O)c(O)c1 [Example 3] , tested on α-adrenoreceptor?
4.21

Could you share what pEC50 was measured for N#CCCCNC[C@H](O)c1ccc(O)c(O)c1 [Example 1] , tested on α-adrenoreceptor?
5.12

Could you share what pEC50 was measured for COCCCC(C)NC[C@H](O)c1ccc(O)c(O)c1 (stereo partly drawn) [Example 5] , tested on α-adrenoreceptor?
4.29

Could you share what pEC50 was measured for CSCCCCNC[C@H](O)c1ccc(O)c(O)c1 [Example 9] , tested on α-adrenoreceptor?
5.85

Could you share what pEC50 was measured for C[S+]([O-])CCCCNC[C@H](O)c1ccc(O)c(O)c1 (stereo partly drawn) [Example 7] , tested on α-adrenoreceptor?
5.26

Could you share what pEC50 was measured for CSCCCC(C)NC[C@H](O)c1ccc(O)c(O)c1 (stereo partly drawn) [Example 8] , tested on α-adrenoreceptor?
4.68

Could you share what pEC50 was measured for CC(CCCC#N)NC[C@H](O)c1ccc(O)c(O)c1 (stereo partly drawn) [Example 2] , tested on α-adrenoreceptor?
4.81

Could you share what pEC50 was measured for CC(CCC[S+](C)[O-])NC[C@H](O)c1ccc(O)c(O)c1 (stereo partly drawn) [*, oxalate salt] , tested on α-adrenoreceptor?
5.11

Could you share what pEC50 was measured for CSCCCNC[C@H](O)c1ccc(O)c(O)c1 [Example 11] , tested on α-adrenoreceptor?
4.05

Values from patent US5775329A
